The values you see were collected from paper PMC5054527.

Target Or System: r-h TM1-C URAT1 chimera (Rattus norvegicus, UniProt Q3ZAV1, L29M/N35S/P27S/T32C/V31L)
Protocol Description: URAT1 uric acid transport activity assay
Format: cell-based, human/rat
Measurement Conditions: r-h TM1-C; HEPES pH 7.3; 100 μM 14C-uric acid; read-out: IC50 (uric acid transport)
Recorded Metric: IC50
A complete answer gives the number and then names the unit.

Form field IC50, entry O=C1C(CC[S+]([O-])c2ccccc2)C(=O)N(c2ccccc2)N1c1ccccc1 (stereo not shown) : 25 µM

----------
Target Or System: r-N35S/M481I rURAT1 double point mutant (Rattus norvegicus, UniProt Q3ZAV1, M481I/N35S)
Construct: hURAT1 and rURAT1 are 553 amino acid proteins with 12 transmembrane segments; expressed in transfected cells; host or cells: HEK-293T
Protocol Description: URAT1 uric acid transport activity assay
Type: cell-based
Measurement Conditions: r-N35S/M481I; HEPES pH 7.3; 100 μM 14C-uric acid; read-out: IC50 (uric acid transport)
Recorded Metric: pIC50
API: returns pIC50 as number; meaning -log10 of concentration in mol/L.

O=C1C(CC[S+]([O-])c2ccccc2)C(=O)N(c2ccccc2)N1c1ccccc1 (stereo not shown) [sulfinpyrazone] on r-N35S/M481I rURAT1 double point mutant (Rattus norvegicus, UniProt Q3ZAV1, M481I/N35S) gives pIC50 = 3.75

----------
Target Or System: r-Y365F/M481I rURAT1 double point mutant (Rattus norvegicus, UniProt Q3ZAV1, M481I/Y365F)
Construct: hURAT1 and rURAT1 are 553 amino acid proteins with 12 transmembrane segments; expressed in transfected cells; host or cells: HEK-293T
Sequence (Q3ZAV1 1-553 Y365F/M481I): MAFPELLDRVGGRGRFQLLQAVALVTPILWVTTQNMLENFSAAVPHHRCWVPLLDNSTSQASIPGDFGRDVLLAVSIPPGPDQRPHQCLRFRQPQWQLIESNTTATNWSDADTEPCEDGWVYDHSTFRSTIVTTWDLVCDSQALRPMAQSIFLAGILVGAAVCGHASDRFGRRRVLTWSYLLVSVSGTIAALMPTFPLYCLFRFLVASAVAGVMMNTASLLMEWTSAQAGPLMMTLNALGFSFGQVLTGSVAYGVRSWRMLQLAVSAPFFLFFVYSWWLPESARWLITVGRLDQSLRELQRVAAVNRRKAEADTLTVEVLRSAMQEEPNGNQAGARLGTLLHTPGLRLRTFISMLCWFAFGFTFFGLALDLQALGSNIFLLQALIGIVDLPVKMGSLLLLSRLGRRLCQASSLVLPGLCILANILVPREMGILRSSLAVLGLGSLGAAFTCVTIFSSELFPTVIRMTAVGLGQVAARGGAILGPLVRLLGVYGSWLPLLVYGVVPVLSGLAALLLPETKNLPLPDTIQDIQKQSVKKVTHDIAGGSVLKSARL
Protocol Description: URAT1 uric acid transport activity assay
Type: cell-based
Measurement Conditions: r-Y365F/M481I; HEPES pH 7.3; 100 μM 14C-uric acid; read-out: IC50 (uric acid transport)
Recorded Metric: IC50
A complete answer gives the number and then names the unit.

Form field IC50, entry O=C1C(CC[S+]([O-])c2ccccc2)C(=O)N(c2ccccc2)N1c1ccccc1 (stereo not shown) : 138 µM

----------
Target Or System: r-V31L rURAT1 point mutant (Rattus norvegicus, UniProt Q3ZAV1, V31L)
Construct: expressed in transfected cells; host or cells: HEK-293T
Protocol Description: URAT1 uric acid transport activity assay
Format: cell-based
Recorded Metric: pIC50
API: returns pIC50 as number; meaning -log10 of concentration in mol/L.

Form field pIC50, entry CCc1oc2ccccc2c1C(=O)c1cc(Br)c(O)c(Br)c1 [benzbromarone] : 4.77

----------
Target Or System: h-r TM8 URAT1 chimera (Homo sapiens, UniProt Q96S37, A392V/A396S/F384L/H402R/I390L/M383A/P407L/V387I)
Sequence (Q96S37 1-553 M383A/F384L/V387I/I390L/A392V/A396S/H402R/P407L): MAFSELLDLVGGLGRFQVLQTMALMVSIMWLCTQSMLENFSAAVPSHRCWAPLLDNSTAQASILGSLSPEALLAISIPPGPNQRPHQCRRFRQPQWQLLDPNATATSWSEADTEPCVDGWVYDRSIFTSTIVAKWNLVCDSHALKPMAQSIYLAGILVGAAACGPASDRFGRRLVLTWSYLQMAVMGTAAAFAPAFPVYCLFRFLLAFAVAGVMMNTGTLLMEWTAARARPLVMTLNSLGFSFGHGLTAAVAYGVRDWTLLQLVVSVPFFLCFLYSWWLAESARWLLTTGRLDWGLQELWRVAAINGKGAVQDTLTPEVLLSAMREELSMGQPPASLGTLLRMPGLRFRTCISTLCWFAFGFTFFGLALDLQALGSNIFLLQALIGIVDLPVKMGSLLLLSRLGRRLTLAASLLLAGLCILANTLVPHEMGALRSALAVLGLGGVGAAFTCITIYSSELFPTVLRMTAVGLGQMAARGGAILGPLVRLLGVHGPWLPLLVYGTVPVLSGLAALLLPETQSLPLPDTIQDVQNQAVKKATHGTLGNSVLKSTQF
Protocol Description: URAT1 uric acid transport activity assay
Measurement Conditions: HEPES pH 7.3, 100 μM 14C-uric acid
Recorded Metric: IC50 (µM)
Please reply with the bare figure in µM and do not write the unit itself.

Form field IC50, entry O=C1C(CC[S+]([O-])c2ccccc2)C(=O)N(c2ccccc2)N1c1ccccc1 (stereo not shown) : 29

----------
Target Or System: r-h TM11 URAT1 chimera (Rattus norvegicus, UniProt Q3ZAV1, M481I/V474M)
Protocol Description: URAT1 uric acid transport activity assay
Format: cell-based, human/rat
Measurement Conditions: r-h TM11; HEPES pH 7.3; 100 μM 14C-uric acid; read-out: IC50 (uric acid transport)
Recorded Metric: IC50 (µM)
Please reply with the bare figure in µM and do not write the unit itself.

Form field IC50, entry O=C1C(CC[S+]([O-])c2ccccc2)C(=O)N(c2ccccc2)N1c1ccccc1 (stereo not shown) : 342

----------
Target Or System: r-T32C rURAT1 point mutant (Rattus norvegicus, UniProt Q3ZAV1, T32C)
Protocol Description: URAT1 uric acid transport activity assay
Format: cell-based
Measurement Conditions: r-T32C; MES pH 5.5; 100 μM 14C-uric acid; read-out: IC50 (uric acid transport)
Recorded Metric: IC50 (µM)
Please reply with the bare figure in µM and do not write the unit itself.

Form field IC50, entry O=C(O)CSc1nnc(Br)n1-c1ccc(C2CC2)c2ccccc12 : 73

----------
Target Or System: r-P27S rURAT1 point mutant (Rattus norvegicus, UniProt Q3ZAV1, P27S)
Protocol Description: URAT1 uric acid transport activity assay
Format: cell-based
Measurement Conditions: r-P27S; HEPES pH 7.3; 100 μM 14C-uric acid; read-out: IC50 (uric acid transport)
Description: hURAT1 (GenBank BC053348.1) and rURAT1 (NCBI NM_001034943.1) genes were purchased from Origene Technologies, Inc. and subcloned into pCMV6/neo using NotI, creating pCMV6/neo-hURAT1 and pCMV6/neo-rURAT1. […] Compounds were serially diluted into assay buffer and added to the cells for 5 minutes prior to addition of radiolabelled uric acid substrate. […] Each treatment was measured in triplicate. […]
Recorded Metric: pIC50
API: returns pIC50 as number; meaning -log10 of concentration in mol/L.

O=C1C(CC[S+]([O-])c2ccccc2)C(=O)N(c2ccccc2)N1c1ccccc1 (stereo not shown) on r-P27S rURAT1 point mutant (Rattus norvegicus, UniProt Q3ZAV1, P27S) gives pIC50 = 3.49

----------
Target Or System: r-h TM7 URAT1 chimera (Rattus norvegicus, UniProt Q3ZAV1, F351C/M354T/Y365F)
Construct: expressed in transfected cells; host or cells: HEK-293T
Sequence (Q3ZAV1 1-553 F351C/M354T/Y365F): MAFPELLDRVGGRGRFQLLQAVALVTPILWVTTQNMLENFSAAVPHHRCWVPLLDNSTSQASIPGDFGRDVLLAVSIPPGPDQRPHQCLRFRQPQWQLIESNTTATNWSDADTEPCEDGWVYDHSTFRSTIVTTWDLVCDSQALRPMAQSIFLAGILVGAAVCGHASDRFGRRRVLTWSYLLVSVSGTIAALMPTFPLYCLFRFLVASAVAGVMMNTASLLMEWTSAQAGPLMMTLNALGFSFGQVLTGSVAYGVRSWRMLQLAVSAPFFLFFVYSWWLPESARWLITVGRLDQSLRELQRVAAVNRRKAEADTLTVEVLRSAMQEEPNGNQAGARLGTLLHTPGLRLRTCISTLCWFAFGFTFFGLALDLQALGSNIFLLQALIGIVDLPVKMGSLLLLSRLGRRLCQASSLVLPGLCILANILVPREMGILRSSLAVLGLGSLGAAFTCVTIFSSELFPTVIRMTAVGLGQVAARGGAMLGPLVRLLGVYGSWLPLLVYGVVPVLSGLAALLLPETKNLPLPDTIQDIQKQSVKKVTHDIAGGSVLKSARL
Protocol Description: URAT1 uric acid transport activity assay
Format: cell-based, human/rat
Recorded Metric: IC50
A complete answer gives the number and then names the unit.

CCc1oc2ccccc2c1C(=O)c1cc(Br)c(O)c(Br)c1 on r-h TM7 URAT1 chimera (Rattus norvegicus, UniProt Q3ZAV1, F351C/M354T/Y365F) gives IC50 = 5.7 µM
